Data provenance: ChEMBL document CHEMBL1287775

tested on: Salmonella typhi; assay: Antimicrobial activity against Salmonella typhi by well diffusion method; type: functional, Salmonella enterica subsp. enterica serovar Typhi; settings: Salmonella enterica
We label by threshold. Values of MIC strictly beneath 20 µg/mL are Y. Values of 20 µg/mL and up are N.

line_notation=O=C(c1ccc(Cl)cc1)[C@@H]1[C@H]2c3ccccc3OC[C@H]2N2Cc3ccccc3C[C@H]12 group_label=Y
line_notation=CN(C)[C@@H]1C(O)=C(C(N)=O)C(=O)[C@@]2(O)C(O)=C3C(=O)c4c(O)cccc4[C@@](C)(O)[C@H]3C[C@@H]12 group_label=N
line_notation=O=C1c2ccccc2CC[C@]12[C@H]1c3ccccc3OC[C@H]1N1CCC[C@@H]12 group_label=N
line_notation=CN1C[C@@]2(CCc3ccccc3C2=O)[C@H]2c3ccccc3OC[C@H]21 group_label=N
line_notation=CN1C[C@H](C(=O)c2ccc(Cl)cc2)[C@H]2c3ccccc3OC[C@H]21 group_label=Y
line_notation=O=C1c2ccccc2CC[C@]12[C@H]1c3ccccc3OC[C@H]1N1Cc3ccccc3C[C@@H]12 group_label=Y
line_notation=O=C(c1ccc(Cl)cc1)[C@@H]1[C@H]2c3ccccc3OC[C@H]2N2CSC[C@H]12 group_label=N
line_notation=O=C1c2ccccc2CC[C@]12[C@H]1c3ccccc3OC[C@H]1N1CSC[C@@H]12 group_label=N
line_notation=O=C(c1ccc(Cl)cc1)[C@@H]1[C@H]2c3ccccc3OC[C@H]2N2CCC[C@H]12 group_label=Y

----------
test system: Trichoderma; experiment: Antimicrobial activity against Trichoderma sp. by poison food technique; type: functional
# MIC values compiled below
measured.property: MIC (µg/mL)

line_notation=O=C(c1ccc(Cl)cc1)[C@@H]1[C@H]2c3ccccc3OC[C@H]2N2CCC[C@H]12 measured_property=MIC recorded_measurement=30
line_notation=O=C1c2ccccc2CC[C@]12[C@H]1c3ccccc3OC[C@H]1N1Cc3ccccc3C[C@@H]12 measured_property=MIC recorded_measurement=50
line_notation=CN1C[C@@]2(CCc3ccccc3C2=O)[C@H]2c3ccccc3OC[C@H]21 measured_property=MIC recorded_measurement=105
line_notation=CN1C[C@H](C(=O)c2ccc(Cl)cc2)[C@H]2c3ccccc3OC[C@H]21 measured_property=MIC recorded_measurement=40
line_notation=O=C(c1ccc(Cl)cc1)[C@@H]1[C@H]2c3ccccc3OC[C@H]2N2CSC[C@H]12 measured_property=MIC recorded_measurement=75
line_notation=O=C1c2ccccc2CC[C@]12[C@H]1c3ccccc3OC[C@H]1N1CCC[C@@H]12 measured_property=MIC recorded_measurement=110
line_notation=O=C(c1ccc(Cl)cc1)[C@@H]1[C@H]2c3ccccc3OC[C@H]2N2Cc3ccccc3C[C@H]12 measured_property=MIC recorded_measurement=45
line_notation=O=C1c2ccccc2CC[C@]12[C@H]1c3ccccc3OC[C@H]1N1CSC[C@@H]12 measured_property=MIC recorded_measurement=105
line_notation=COC(=O)Nc1nc2ccccc2[nH]1 measured_property=MIC recorded_measurement=15

----------
system: Aspergillus sp.; assay: Antimicrobial activity against Aspergillus sp. by poison food technique; format: functional
measured.property: MIC

line_notation=O=C1c2ccccc2CC[C@]12[C@H]1c3ccccc3OC[C@H]1N1CCC[C@@H]12 recorded_measurement="75 µg/mL"
line_notation=O=C1c2ccccc2CC[C@]12[C@H]1c3ccccc3OC[C@H]1N1Cc3ccccc3C[C@@H]12 recorded_measurement="25 µg/mL"
line_notation=O=C1c2ccccc2CC[C@]12[C@H]1c3ccccc3OC[C@H]1N1CSC[C@@H]12 recorded_measurement="75 µg/mL"
line_notation=CN1C[C@H](C(=O)c2ccc(Cl)cc2)[C@H]2c3ccccc3OC[C@H]21 recorded_measurement="35 µg/mL"
line_notation=COC(=O)Nc1nc2ccccc2[nH]1 recorded_measurement="15 µg/mL"
line_notation=CN1C[C@@]2(CCc3ccccc3C2=O)[C@H]2c3ccccc3OC[C@H]21 recorded_measurement="85 µg/mL"
line_notation=O=C(c1ccc(Cl)cc1)[C@@H]1[C@H]2c3ccccc3OC[C@H]2N2CCC[C@H]12 recorded_measurement="25 µg/mL"
line_notation=O=C(c1ccc(Cl)cc1)[C@@H]1[C@H]2c3ccccc3OC[C@H]2N2Cc3ccccc3C[C@H]12 recorded_measurement="25 µg/mL"
line_notation=O=C(c1ccc(Cl)cc1)[C@@H]1[C@H]2c3ccccc3OC[C@H]2N2CSC[C@H]12 recorded_measurement="70 µg/mL"
